- testProtocol: Fecal excretion study in rats after oral NS, SF or CNS (LC–MS/MS)
- Format: in vivo
- appliedConditions: rat feces, oral CNS 110 mg/kg, 48 h
Item-by-item account of Accumulative excretion amount
measuredProperty: Accumulative excretion amount (µg)

compound	valueReported
CC(C)=CCC[C@](C)(O[C@@H]1O[C@H](CO)[C@@H](O)[C@H](O)[C@H]1O)[C@H]1CC[C@]2(C)[C@@H]1[C@H](O)C[C@@H]1[C@@]3(C)CC[C@H](O)C(C)(C)[C@@H]3[C@@H](O[C@@H]3O[C@H](CO)[C@@H](O)[C@H](O)[C@H]3O)C[C@]12C [ginsenoside Rg1]	99.901
CC(C)=CCC[C@](C)(O[C@@H]1O[C@H](CO)[C@@H](O)[C@H](O)[C@H]1O)[C@H]1CC[C@]2(C)[C@@H]1[C@H](O)C[C@@H]1[C@@]3(C)CC[C@H](O[C@@H]4O[C@H](CO)[C@@H](O)[C@H](O)[C@H]4O[C@@H]4O[C@H](CO)[C@@H](O)[C@H](O)[C@H]4O)C(C)(C)[C@@H]3CC[C@]12C [ginsenoside Rd]	30.478
CC(C)=CCC[C@](C)(O[C@@H]1O[C@H](CO)[C@@H](O)[C@H](O)[C@H]1O)[C@H]1CC[C@]2(C)[C@@H]1[C@H](O)C[C@@H]1[C@@]3(C)CC[C@H](O)C(C)(C)[C@@H]3[C@@H](O[C@@H]3O[C@H](CO)[C@@H](O)[C@H](O)[C@H]3O[C@@H]3O[C@@H](C)[C@H](O)[C@@H](O)[C@H]3O)C[C@]12C [ginsenoside Re]	25.852
CC(C)=CCC[C@](C)(O[C@@H]1O[C@H](CO[C@@H]2O[C@H](CO)[C@@H](O)[C@H](O)[C@H]2O)[C@@H](O)[C@H](O)[C@H]1O)[C@H]1CC[C@]2(C)[C@@H]1[C@H](O)C[C@@H]1[C@@]3(C)CC[C@H](O[C@@H]4O[C@H](CO)[C@@H](O)[C@H](O)[C@H]4O[C@@H]4O[C@H](CO)[C@@H](O)[C@H](O)[C@H]4O)C(C)(C)[C@@H]3CC[C@]12C [ginsenoside Rb1]	64.538
